property.label: melting point

- OCc1cn2c(n1)CN=C(c1ccccc1)c1cc(Cl)ccc1-2: 203 to 204 °C
- Cc1ncc(CCCOc2c(C)cc(-c3noc(C(F)(F)F)n3)cc2C)s1: 62 to 64 °C
- O=C(c1cc2c3ccccc3n(Cc3ccccc3)c2s1)N1CCOCC1: 199 to 201 °C
- O=C(Cc1ccc(O)cc1)Nc1c(-c2cc(Cl)ccc2O)c2cc(C(F)(F)F)ccc2[nH]c1=O: 218 to 221 °C
- CN(C)c1ccc(C(=O)OC2=C([C@H]3CC[C@H](c4ccc(Cl)cc4)CC3)C(=O)c3ccccc3C2=O)cc1: 117 to 121 °C
- CS(=O)(=O)Nc1ncc(SCc2ccccc2)s1: 159 to 162 °C
- Cc1nnc2ccc(-c3cccc(N(C)C(=O)C4CCC4)c3)nn12: 171 to 173 °C
- CCOC(=O)COC(=O)c1c(Cl)cccc1Cl: 50 to 51 °C
- Nc1ccc(S(=O)(=O)Nc2cccc(OP(N)(N)=O)c2)cc1: 185 to 186 °C
- CC(C)c1cc(Oc2ccc(Cl)cc2)nc(C(C)C)c1N: 86 to 88 °C
- Nc1cccc(Oc2ccc(C(=O)c3ccc(C(=O)c4ccc(Oc5cccc(N)c5)cc4)cc3)cc2)c1: 161 to 163 °C
- CCCCCCCCCOC1C(O)C(CO)OC1n1cnc2c(=O)[nH]c(N)nc21 (configuration not stated): 258 to 259 °C
- CCOP(=O)(/C=C/c1ccc2cc(NC(=O)C(NC(=O)OC(C)(C)C)C(C)(C)C)cc(-c3cccc4ccccc34)c2n1)OCC (configuration not stated): 249 to 250 °C
- Cc1ccc2c(c1)OC(C(=O)O)Oc1ccccc1C2 (configuration not stated): 149 to 152 °C
- c1ccc2c(c1)Cn1ncnc1-2: 116 to 117 °C
- O=c1oc(-c2ccc(C(F)(F)F)cc2)nc2cc(F)ccc12: 137 to 139 °C
- Oc1nc(-c2ccc3c(c2)CCO3)nc2ccccc12: 289 to 294 °C
- CCCCN(CCCC)CCCOc1ccc(C(=O)c2c(C)oc3ccc([N+](=O)[O-])cc23)cc1: 63 °C
- CCNC(=O)c1c(C)cccc1N(C)C(C)(C)C: 101 to 103 °C
- COC(=O)[C@H](Cc1ccccc1)NC(=O)CCC(=O)[C@H](Cc1ccccc1)NC(=O)c1ccccc1: 106 to 109 °C
- CC(C)(C)OC(=O)N1CCC(OCc2ccccc2)C1CC(O)Cn1cnc2ccc(F)c(F)c2c1=O (configuration not stated): 218 °C
- Clc1ccc(C2(Cn3cncn3)OCCO2)c(Cl)c1Cl: 181 °C
- O=Cc1cc(-c2ccccc2)nn1Cc1ccc(Cl)cc1Cl: 135 to 137 °C
- O=C1c2cc(O)ccc2OCN1CCO: 148 to 150 °C
- Clc1ccnc2ncnn12: 190 °C
- CCc1cccc(-c2cn(C)cc(-c3ccccc3)c2=O)c1: 135 to 137 °C
- CC(C)(C)c1cc(C2=CCSCC2)c(O)c(C(C)(C)C)c1: 115 to 119 °C
- O=C1c2c(Cl)cccc2-c2cc(O)cc3cccc1c23: 308 to 312 °C
- COC(=O)c1cc2c(C)ccc(C)c2n1OC(C)=O: 87 to 88 °C
- CCc1nn(CC#N)c(CC)c1Oc1cc(Cl)cc(Cl)c1: 70 to 72 °C
- O=c1[nH]ccc2cc(S(=O)(=O)N3CCCNCC3)ccc12: 266 to 267 °C
- Cc1cc(Cl)cc(C(=O)Nc2cccc(Cl)n2)n1: 176 °C
